pEC50 reference
target: Ba/F3 stable cells (Homo sapiens, UniProt P00533, DUP771-773, cells depend on it)
Construct: EC50 Ba/F3-EGFR H773-V774insNPH; other: Ba/F3-EGFR H773-V774insNPH cells, 72 h, CCK-8
Sequence (P00533 with tags, fused parts or gaps DUP771-773): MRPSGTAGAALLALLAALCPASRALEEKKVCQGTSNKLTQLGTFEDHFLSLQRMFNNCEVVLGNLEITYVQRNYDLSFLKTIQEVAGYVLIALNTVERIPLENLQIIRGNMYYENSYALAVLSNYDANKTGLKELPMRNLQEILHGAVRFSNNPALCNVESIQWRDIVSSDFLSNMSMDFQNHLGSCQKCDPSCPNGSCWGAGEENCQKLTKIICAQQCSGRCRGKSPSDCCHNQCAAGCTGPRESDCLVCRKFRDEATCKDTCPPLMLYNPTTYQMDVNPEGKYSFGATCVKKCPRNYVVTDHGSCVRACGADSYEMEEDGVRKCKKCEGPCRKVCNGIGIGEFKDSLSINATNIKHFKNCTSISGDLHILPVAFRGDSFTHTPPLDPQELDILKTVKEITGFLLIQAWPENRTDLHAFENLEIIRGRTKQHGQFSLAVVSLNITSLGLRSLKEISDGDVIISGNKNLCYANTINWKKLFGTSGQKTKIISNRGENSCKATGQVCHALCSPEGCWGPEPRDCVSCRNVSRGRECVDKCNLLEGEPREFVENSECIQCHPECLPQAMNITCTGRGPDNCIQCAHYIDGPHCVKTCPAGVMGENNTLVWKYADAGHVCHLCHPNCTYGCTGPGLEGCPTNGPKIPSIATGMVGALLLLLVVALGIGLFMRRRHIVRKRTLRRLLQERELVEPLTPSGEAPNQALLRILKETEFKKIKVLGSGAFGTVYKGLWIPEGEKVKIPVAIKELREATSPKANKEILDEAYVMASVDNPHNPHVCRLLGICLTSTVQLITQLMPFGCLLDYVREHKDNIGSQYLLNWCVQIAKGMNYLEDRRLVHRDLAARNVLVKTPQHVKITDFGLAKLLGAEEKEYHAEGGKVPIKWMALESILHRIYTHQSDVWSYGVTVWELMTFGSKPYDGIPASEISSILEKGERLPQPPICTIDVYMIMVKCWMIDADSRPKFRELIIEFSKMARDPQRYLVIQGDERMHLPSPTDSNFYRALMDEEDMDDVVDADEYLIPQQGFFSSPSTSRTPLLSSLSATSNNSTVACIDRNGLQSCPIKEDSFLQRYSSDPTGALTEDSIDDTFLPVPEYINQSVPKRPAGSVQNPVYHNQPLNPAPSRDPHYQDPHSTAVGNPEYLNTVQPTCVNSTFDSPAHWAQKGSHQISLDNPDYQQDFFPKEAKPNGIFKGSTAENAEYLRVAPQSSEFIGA
protocol_details: EC50 assay: Ba/F3 stable cell proliferation (CCK-8, 72 h)
run_parameters: Ba/F3-EGFR H773-V774insNPH cells
pEC50: −log10 of the molar value.

Use these answered entries as a reference point.
INSERT INTO assay_data (molecule, assay_result) VALUES
  ('C=CC(=O)N1CCC(Oc2cc3c(NC(CCO)c4cccc(Cl)c4)ncnc3cc2OC)CC1 (centres unmarked)', '≥ 6.70'),
  ('C=CC(=O)N1CCC(Oc2cc3c(NC(CC(N)=O)c4cccc(Cl)c4)ncnc3cc2OC)CC1 (centres unmarked)', '6.00 to 6.70'),
  ('C=CC(=O)N1CCC(Oc2cc3c(Nc4ccc5sc(C)nc5c4)ncnc3cc2OC)CC1', '< 6.00'),
  ('[2H]C([2H])([2H])n1cn/c(=N\c2ccc(Cl)c(Cl)c2F)c2cc3c(cc21)OCC3CNC(=O)C=C (centres unmarked)', '< 6.00'),
  ('C=CC(=O)NC1CC(Oc2cc3c(C(=O)NCc4ccc(F)cc4)ncnc3cc2OC)C1 (centres unmarked)', '< 6.00'),
  ('C=CS(=O)(=O)N1CCCC(c2ccc3ncnc(Nc4ccc(Cl)c(Cl)c4F)c3c2)C1 (centres unmarked)', '≥ 6.70');

# input # query: pEC50 | item C=CC(=O)N1CC(c2cc3c(Nc4ccc(F)c(Cl)c4)ncnc3cc2OC)C1 | system: Ba/F3 stable cells (Homo sapiens, UniProt P00533, DUP771-773, cells depend on it)
# output ≥ 6.70

# input What do we get for C=CC(=O)N1CCC(Oc2cc3c(Nc4ccc5c(c4)CCN5S(C)(=O)=O)ncnc3cc2OC)CC1 ?
# output < 6.00

* * *

target: Ba/F3 stable cells (Homo sapiens, UniProt P00533, DUP771-773, cells depend on it)
Construct: EC50 Ba/F3-EGFR H773-V774insNPH; other: Ba/F3-EGFR H773-V774insNPH cells, 72 h, CCK-8
protocol_details: EC50 assay: Ba/F3 stable cell proliferation (CCK-8, 72 h)
run_parameters: Ba/F3-EGFR H773-V774insNPH cells
pEC50: −log10 of the molar value.
pEC50 values, listed per item

Some compounds with recorded pEC50:
INSERT INTO assay_data (compound, assay_result) VALUES
  ('C=CC(=O)N1CC(c2cc3c(Nc4ccc(Cl)c(Cl)c4F)ncnc3cc2OCCN2CCN(C)CC2)C1', '≥ 6.70'),
  ('C=CC(=O)NC1CC(Oc2cc3c(Nc4ccc(F)c5c4CCC5=O)ncnc3cc2OC)C1 (stereo not shown)', '< 6.00'),
  ('C=CC(=O)N1CCC(Oc2cc3c(NCc4cc(Cl)ccc4Cl)ncnc3cc2OC)CC1', '< 6.00'),
  ('C=CC(=O)N[C@H]1C[C@@H](Oc2cc3c(Nc4ccc(Cl)c(Cl)c4)ncnc3cc2OC)C1', '6.00 to 6.70'),
  ('C=CC(=O)N1CC(c2cc3c(Nc4ccc(F)c(Cl)c4F)ncnc3cc2O[C@H]2CCOC2)C1', '≥ 6.70'),
  ('C=CC(=O)N1CCC(Oc2cc3c(NCc4ccccc4)ncnc3cc2OC)CC1', '≥ 6.70'),
  ('C=CC(=O)N1CCC(Oc2cc3c(Nc4ccc(Cl)c5ccccc45)ncnc3cc2OC)CC1', '6.00 to 6.70'),
  ('C=CC(=O)N1CCC(Oc2cc3c(NCc4cccc(I)c4)ncnc3cc2OC)CC1', '6.00 to 6.70');

# input Missing value: pEC50, Ba/F3 stable cells (Homo sapiens, UniProt P00533, DUP771-773, cells depend on it), entry C=CC(=O)N1CCC(Oc2cc3c(Nc4ccc5cn[nH]c5c4)ncnc3cc2OC)CC1 . Fill in?
# output < 6.00

# input Field entry: C=CC(=O)N1CCC(Oc2cc3c(NCc4ccc(Cl)cc4Cl)ncnc3cc2OC)CC1
# output < 6.00

# input // query: [2H]C([2H])([2H])Oc1cc2ncnc(Nc3ccc(Cl)c(Cl)c3F)c2cc1O[C@H]1C[C@@H](NC(=O)C=C)C1
# output ≥ 6.70

# input Another compound to look at: C=CC(=O)NC1CC(Nc2cc3c(Nc4ccc(Cl)c(Cl)c4F)ncnc3cc2OC)C1 (stereo not shown)
# output ≥ 6.70

* * *

target: Ba/F3 stable cells (Homo sapiens, UniProt P00533, DUP768-770, cells depend on it)
Construct: EC50 Ba/F3-EGFR D770-N771insSVD; other: Ba/F3-EGFR D770-N771insSVD cells, 72 h, CCK-8
Sequence (P00533 with tags, fused parts or gaps DUP768-770): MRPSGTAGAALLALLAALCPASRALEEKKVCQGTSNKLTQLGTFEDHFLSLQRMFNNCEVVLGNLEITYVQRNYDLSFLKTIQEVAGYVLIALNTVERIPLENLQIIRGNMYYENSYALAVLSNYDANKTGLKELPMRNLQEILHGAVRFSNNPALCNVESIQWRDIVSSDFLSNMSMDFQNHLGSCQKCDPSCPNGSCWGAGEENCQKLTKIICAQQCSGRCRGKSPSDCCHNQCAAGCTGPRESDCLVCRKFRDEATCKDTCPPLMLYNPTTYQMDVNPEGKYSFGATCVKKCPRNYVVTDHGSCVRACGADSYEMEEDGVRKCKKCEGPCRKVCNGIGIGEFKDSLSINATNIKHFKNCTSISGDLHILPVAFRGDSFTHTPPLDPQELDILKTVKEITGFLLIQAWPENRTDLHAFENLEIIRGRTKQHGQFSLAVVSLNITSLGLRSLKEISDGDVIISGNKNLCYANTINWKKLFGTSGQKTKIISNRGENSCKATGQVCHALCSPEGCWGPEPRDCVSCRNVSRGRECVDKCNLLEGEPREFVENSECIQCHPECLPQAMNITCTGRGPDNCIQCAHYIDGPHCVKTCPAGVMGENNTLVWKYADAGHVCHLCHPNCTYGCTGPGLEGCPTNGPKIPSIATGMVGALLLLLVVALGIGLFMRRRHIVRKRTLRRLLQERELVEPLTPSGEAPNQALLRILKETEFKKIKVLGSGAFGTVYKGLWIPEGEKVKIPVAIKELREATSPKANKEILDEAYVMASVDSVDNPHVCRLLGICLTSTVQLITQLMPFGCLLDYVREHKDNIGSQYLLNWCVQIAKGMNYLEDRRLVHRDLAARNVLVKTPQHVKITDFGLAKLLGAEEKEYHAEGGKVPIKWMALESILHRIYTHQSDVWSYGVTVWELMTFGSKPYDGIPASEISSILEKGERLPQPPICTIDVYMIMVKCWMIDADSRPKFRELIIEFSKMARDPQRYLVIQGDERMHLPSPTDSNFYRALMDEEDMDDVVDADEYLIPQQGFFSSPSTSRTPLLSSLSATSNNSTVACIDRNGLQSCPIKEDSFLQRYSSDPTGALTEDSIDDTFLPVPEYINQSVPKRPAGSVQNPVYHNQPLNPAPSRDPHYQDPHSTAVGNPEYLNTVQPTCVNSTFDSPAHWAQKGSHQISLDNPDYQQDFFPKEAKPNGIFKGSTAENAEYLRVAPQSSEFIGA
protocol_details: EC50 assay: Ba/F3 stable cell proliferation (CCK-8, 72 h)
run_parameters: Ba/F3-EGFR D770-N771insSVD cells
EC50 listing for selected compounds.

INSERT INTO measurements (compound, assay_result) VALUES
  ('C=CC(=O)NC1COc2c(-c3cnc4ccccc4c3)c3c(N)ncnc3n2C1 (centres unmarked)', '> 1 µM');

# input Kindly state the measured EC50 obtained for C=CC(=O)N1CC(c2cc3c(Nc4ccc(Cl)c(Cl)c4F)ncnc3cc2O[C@@H]2CCOC2)C1 with Ba/F3 stable cells (Homo sapiens, UniProt P00533, DUP768-770, cells depend on it).
# output 0.2 to 1 µM

# input Also, C=CC(=O)N1CCC(c2cc3c(Nc4ccc(Cl)c(Cl)c4F)ncnc3cc2OC)C1 (centres unmarked) please.
# output ≤ 0.2 µM

# input Next entry: C=CC(=O)NC1CC(Oc2cc3c(Nc4ccc5c(c4)CCCC5=O)ncnc3cc2OC)C1 (centres unmarked)
# output > 1 µM

# input Entry to check: C#CC(=O)N[C@H]1C[C@H](Oc2cc3c(Nc4ccc5ccccc5c4)ncnc3cc2OC)C1
# output 0.2 to 1 µM

# input Let us now turn to C#CC(=O)N1C2CCC1CC(Oc1cc3c(Nc4cccc5c4CCC5)ncnc3cc1OC)C2 (centres unmarked)
# output 0.2 to 1 µM

# input Now consider C=CC(=O)N1CCC(Oc2cc3c(Nc4nc5cc(Cl)ccc5o4)ncnc3cc2OC)CC1 and answer again.
# output > 1 µM

# input Check C=CC(=O)N1CCC(Oc2cc3c(C(=O)NCc4ccc(F)cc4)ncnc3cc2OC)CC1 too.
# output > 1 µM

* * *

target: Ba/F3 stable cells (Homo sapiens, UniProt P04626, DUP772-775, cells depend on it)
Construct: EC50 Ba/F3-HER2 A775-G776insYVMA; other: Ba/F3-HER2 A775-G776insYVMA cells, 72 h, CCK-8
Sequence (P04626 with tags, fused parts or gaps DUP772-775): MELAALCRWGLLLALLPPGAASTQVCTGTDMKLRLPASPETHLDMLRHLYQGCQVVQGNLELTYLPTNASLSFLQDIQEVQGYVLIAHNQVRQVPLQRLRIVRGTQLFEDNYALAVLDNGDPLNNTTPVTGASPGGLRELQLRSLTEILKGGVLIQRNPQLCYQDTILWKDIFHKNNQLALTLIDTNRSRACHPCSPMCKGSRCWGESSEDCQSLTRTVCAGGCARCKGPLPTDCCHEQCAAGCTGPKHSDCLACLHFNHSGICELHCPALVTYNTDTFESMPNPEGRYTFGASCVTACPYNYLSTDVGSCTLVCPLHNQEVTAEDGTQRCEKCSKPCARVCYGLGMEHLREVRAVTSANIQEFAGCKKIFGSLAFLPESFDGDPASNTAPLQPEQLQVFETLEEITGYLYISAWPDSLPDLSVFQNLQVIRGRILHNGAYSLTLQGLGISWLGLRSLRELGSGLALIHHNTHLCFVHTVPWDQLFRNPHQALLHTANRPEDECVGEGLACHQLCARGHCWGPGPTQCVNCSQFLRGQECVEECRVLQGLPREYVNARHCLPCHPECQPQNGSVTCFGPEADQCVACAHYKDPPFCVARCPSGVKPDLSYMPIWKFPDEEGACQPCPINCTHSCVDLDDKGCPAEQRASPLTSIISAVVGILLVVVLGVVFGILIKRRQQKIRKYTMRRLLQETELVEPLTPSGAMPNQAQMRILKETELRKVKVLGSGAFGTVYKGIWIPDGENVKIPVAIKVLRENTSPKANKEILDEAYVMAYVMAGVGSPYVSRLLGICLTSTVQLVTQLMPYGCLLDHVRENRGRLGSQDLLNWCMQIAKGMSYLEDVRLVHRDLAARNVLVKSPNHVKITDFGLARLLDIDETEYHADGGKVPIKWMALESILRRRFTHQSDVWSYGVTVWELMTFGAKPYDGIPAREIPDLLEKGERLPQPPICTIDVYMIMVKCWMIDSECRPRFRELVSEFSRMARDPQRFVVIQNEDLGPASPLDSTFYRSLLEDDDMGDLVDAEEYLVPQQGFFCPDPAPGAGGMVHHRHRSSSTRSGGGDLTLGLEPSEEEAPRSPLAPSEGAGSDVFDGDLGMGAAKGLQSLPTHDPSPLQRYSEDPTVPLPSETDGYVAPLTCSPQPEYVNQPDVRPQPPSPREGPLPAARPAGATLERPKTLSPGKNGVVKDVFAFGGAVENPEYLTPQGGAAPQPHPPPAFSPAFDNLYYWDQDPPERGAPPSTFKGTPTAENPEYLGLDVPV
protocol_details: EC50 assay: Ba/F3 stable cell proliferation (CCK-8, 72 h)
run_parameters: Ba/F3-HER2 A775-G776insYVMA cells
Method: 4,000 Ba/F3 stable cells/90 μL/well were plated onto 96-well cell culture plate (Grenier, Cat.No. 655180) and incubated at 37° C. with a humidified atmosphere of 5% CO2 for 2 h. Then the cells were treated with 10 μL compounds at serial titration. […] 10 μL the cell proliferation reagent CCK-8 (Dojindo, Cat.No. CK04 1000T) was added into each well and incubated the plate at 37° C. for 4 hours, the GD value was measured by SPECTRAmax plus (Molecular Devices) at 450 nm. […]
pEC50: −log10 of the molar value.
Entries and their measured pEC50 follow.

These recorded examples may help you get a feel for the data.
INSERT INTO measurements (compound, measurement_name, assay_result) VALUES
  ('C=CC(=O)NC1CC(Oc2cc3c(Nc4ccc(F)c5c4CCC5=O)ncnc3cc2OC)C1 (centres unmarked)', 'pEC50', '< 6.00'),
  ('C=CC(=O)N1CCC(Oc2cc3c(NCc4cccc(Br)c4)ncnc3cc2OC)CC1', 'pEC50', '6.00 to 6.70'),
  ('C=CC(=O)N1CCC(c2cc3c(Nc4ccc(Cl)c(Cl)c4F)ncnc3cc2OC)CC1', 'pEC50', '6.00 to 6.70'),
  ('C=CC(=O)N1CC(c2cc3c(Nc4ccc(Cl)c(Cl)c4F)ncnc3cc2OCCO)C1', 'pEC50', '≥ 6.70'),
  ('C=CC(=O)N1CC(Oc2c(OC)cc3ncnc4c3c2NC(=O)N4c2ccc(Cl)c(Cl)c2F)C1', 'pEC50', '< 6.00');

# input # query: pEC50 of entry C=CC(=O)N1CC(c2cc3c(Nc4ccc(F)c5ccccc45)ncnc3cc2OC)C1
# output < 6.00

# input What about this compound? C#CC(=O)N[C@H]1C[C@@H](Oc2cc3c(Nc4cccc5c4CCC5)ncnc3cc2OC)C1
# output < 6.00

# input Continue with C=CC(=O)N1CC(c2cc3c(Nc4ccc(Cl)c(Cl)c4F)ncnc3cc2OC)C1
# output ≥ 6.70

# input Next up: C#CC(=O)N1C2CCCC1CC(Oc1cc3c(Nc4cccc5ccccc45)ncnc3cc1OC)C2 (centres unmarked)
# output ≥ 6.70

# input Same again, this time with C=C(F)C(=O)N[C@H]1C[C@@H](Oc2cc3c(Nc4ccc(Cl)c(Cl)c4F)ncnc3cc2OC)C1
# output 6.00 to 6.70

# input Field entry: C=CS(=O)(=O)N1CCC(Oc2cc3c(Nc4ccc(Cl)c(Cl)c4F)ncnc3cc2OC)CC1
# output 6.00 to 6.70

# input Next up: C=CC(=O)N1CCC(Oc2cc3c(Nc4nc5cc(Cl)ccc5o4)ncnc3cc2OC)CC1
# output < 6.00
